system: GM15850; test: Increase in total intracellular ATP levels in FRDA patient derived lymphocyte GM15850 grown in galactose medium at 5 uM after 48 hrs by luciferin-luciferase reaction based bioluminescence assay relative to control; assay type: functional, Homo sapiens
Metric name: Activity (%)
API: value field is a number in %; no unit string.

[
  {
    "Entry smiles": "CCCCCCCCCCCCCCCCc1nc(N2CCC2)nc(OCC)c1O",
    "Test target": "GM15850",
    "Endpoint result": 108
  },
  {
    "Entry smiles": "CCCCCCCCCCCCCCCCc1nc(N2CCC2)nc(OC2CCC2)c1O",
    "Test target": "GM15850",
    "Endpoint result": 112
  },
  {
    "Entry smiles": "CCCCCCCCCCCCCCCCc1nc(N2CCCC2)nc(OC2CCC2)c1O",
    "Test target": "GM15850",
    "Endpoint result": 107
  },
  {
    "Entry smiles": "CCCCCCCCCCCCCCCCc1nc(N(C)C)nc(OC)c1O",
    "Test target": "GM15850",
    "Endpoint result": 107
  },
  {
    "Entry smiles": "CCCCCCCCCCCCCCCOc1nc(N2CCC2)nc(C)c1O",
    "Test target": "GM15850",
    "Endpoint result": 68
  }
]

# input Recall and state the measured Activity for CCCCCCCCCCCCCCCCc1nc(N2CCC2)nc(OC)c1O .
# output 109

# input Recall and state the measured Activity for CCCCCCCCCCCCCCCCc1nc(N2CCC2)nc(OC(C)C)c1O .
# output 109

# input Recall and state the measured Activity for CCCCCCCCCCCCCCCCc1nc(N2CCCCC2)nc(OC2CCC2)c1O .
# output 106

# input Recall and state the measured Activity for CCCCCCCCCCCCCCCCc1nc(N2CCC2)nc(C)c1O .
# output 98

====

The entries below are paired with their reported Activity.
tested on: GM15850; test: Increase in total intracellular ATP levels in FRDA patient derived lymphocyte GM15850 grown in galactose medium at 20 uM after 48 hrs by luciferin-luciferase reaction based bioluminescence assay relative to control; type: functional, Homo sapiens
API: value field is a number in %; no unit string.

Examples with their reported Activity follow.
[
  {
    "Entry smiles": "CCCCCCCCCCCCCCCCc1nc(N2CCC2)nc(OC2CCC2)c1O",
    "Endpoint result": 103
  },
  {
    "Entry smiles": "CCCCCCCCCCCCCCCCc1nc(N2CCC2)nc(OCC)c1O",
    "Endpoint result": 96
  },
  {
    "Entry smiles": "CCCCCCCCCCCCCCCCc1nc(N2CCC2)nc(C)c1O",
    "Endpoint result": 60
  },
  {
    "Entry smiles": "CCCCCCCCCCCCCCCCc1nc(N(C)C)nc(OC)c1O",
    "Endpoint result": 88
  },
  {
    "Entry smiles": "CCCCCCCCCCCCCCCCc1nc(N2CCCC2)nc(OC2CCC2)c1O",
    "Endpoint result": 102
  }
]

# input Recall and state the measured Activity for CCCCCCCCCCCCCCCCc1nc(N2CCC2)nc(OC)c1O .
# output 74

# input Recall and state the measured Activity for CCCCCCCCCCCCCCCCc1nc(N2CCCCC2)nc(OC2CCC2)c1O .
# output 100

# input Recall and state the measured Activity for CCCCCCCCCCCCCCCOc1nc(N2CCC2)nc(C)c1O .
# output 11

# input Recall and state the measured Activity for CCCCCCCCCCCCCCCCc1nc(N2CCC2)nc(OC(C)C)c1O .
# output 95
